- measurementTarget: DNA gyrase (Staphylococcus aureus, UniProt P0A0K8+P20831)
- assayText: Inhibition of Staphylococcus aureus DNA gyrase
reportedEndpoint: IC50 (nM)

molecule | IC50 (nM)
COc1ccc2c(c1)CN(C1CC(c3ccc(Cl)cc3Cl)=NN1c1nc(-c3ccc(F)cc3F)oc1C)CC2 (stereo not given) | 878
COc1ccc2c(c1)CN(C1CC(c3ccc(-c4ccco4)cc3)=NN1c1nc(-c3ccc(F)cc3F)oc1C)CC2 (stereo not given) | 441

A = COc1ccc2c(c1)CN(C1CC(c3ccccc3F)=NN1c1nc(-c3ccccc3F)oc1C)CC2 (stereo not given)
B = Cc1oc(-c2ccc(F)cc2F)nc1N1N=C(c2ccc(-c3ccco3)cc2)CC1N1CCc2ccccc2C1 (stereo not given)
Exam item: Lab log: flag the item ( A or B ) with the smaller IC50 figure. Reply briefly: the label of your chosen item.
Marked response: B
